Test description: Quantitative High-Throughput drug screen in 47 multiple myeloma cell lines against the NCATS MIPE library collection: AMO1_DSMZ cell viability assay (AID 1918927; further: nearly all actives have a fitted effect of over 30% in size; further: potency means the concentration at half of the fitted maximal effect)
Experimental setup: AMO1 myeloma cells viability, CellTiter-Glo ATP luminescence, 48 h; series mostly up to 45.8 µM
Inconclusive results are not listed. The source made the active and inactive calls. The call rests on the fitted dose curve; in most records, active means well fitted cell-killing curve with a large enough effect; inconclusive means small, poorly fitted or top-dose-only effect, or effect the other way; inactive means no such curve, though single readings can be large or run the other way.
Measured quantity: Potency

A selection of reference data follows.
Molecule	Potency
Cn1c(CNc2ccc(C(=N)N)cc2)nc2cc(C(=O)N(CCC(=O)O)c3ccccn3)ccc21	inactive
COc1cc2c(Oc3ccc(-c4cnc(Nc5ccc(F)cc5)n(C)c4=O)cc3F)ccnc2cc1OCCCN1CCOCC1	2350 nM (active)
COCCn1c2c([n+](Cc3cnccn3)c1C)C(=O)c1ccccc1C2=O	52.6 nM (active)
Clc1ccc2ncc(-c3cccc(NC4CNC4)n3)n2c1	4690 nM (active)

Briefly, Potency measured for `Cc1ccc(S(=O)(=O)Nc2cc(Cl)ccc2C(=O)Nc2nc(-c3ccccc3)cs2)cc1` : 9350 nM (active)

----------
Test description: qHTS drug screen for cell cycle checkpoint inhibitors in PARPi-resistant BRCA-mutant ovarian cancer cell lines. (AID 1963452)
Experimental setup: PEO1/OlaR viability, CellTiter-Glo luminescence, 96 h; hits give low values
Provide the recorded Z-AUC for the entries that follow.
# respond with the number and nothing more

Entry `COc1cc2c(Oc3ccc(NC(=O)C4(C(=O)Nc5ccc(F)cc5)CC4)cc3F)ccnc2cc1OCCCN1CCOCC1` — recorded Z-AUC = -0.782

The molecule identified as `CN(C)Cc1c(C(=O)NCCOc2ccc(C(=O)NO)cc2)oc2ccccc12` registered its Z-AUC at -0.744

The molecule listed as `Nc1ccccc1NC(=O)c1ccc(CNc2nccc(-c3cccnc3)n2)cc1` shows Z-AUC equal to -0.45

GET /value?item= `COc1ccc2c(OCc3nnc4ccc(-c5ccccc5)nn34)ccnc2c1` &field=Z-AUC returns -0.0998

----------
Test description: Quantitative High-Throughput drug screen in 47 multiple myeloma cell lines against the NCATS MIPE library collection: KMS26_JCRB cell viability assay (AID 1918975); further: nearly all actives have a fitted effect of over 45% in size
Experimental setup: KMS26 myeloma cells viability, CellTiter-Glo ATP, 48 h; series mostly up to 45.8 µM
Results filed as inconclusive are left out. Calls of active or inactive are those of the source. The call rests on the fitted dose curve; in most records, active means well fitted cell-killing curve with a large enough effect; inconclusive means small, poorly fitted or top-dose-only effect, or effect the other way; inactive means no such curve, though single readings can be large or run the other way.
Mark one answer only. Choices: y = active, n = inactive

Hi, sorry to bother you, what did the test record for `O=C(O)CO.[NH2-].[NH2-].[Pt+2]` ?
n

Write down the call the test reported for this compound. Item: Cn1c2cc(S(C)=O)sc2c2cnn(Cc3cccc(N)c3)c(=O)c21 (stereo not given)
n

Any idea what this test logged for `OCc1ccc(-c2ccc(-c3ccc(CO)s3)o2)s1` ?
y

For `Cc1nc2ccc(CN(C)c3ccc(C(=O)N[C@@H](CCC(=O)O)C(=O)O)s3)cc2c(=O)[nH]1` , what call appears in the results of this test?
y

Hi, do you know how `Cc1cc(N2CCOCC2)cc2[nH]c(-c3c(NC[C@@H](O)c4cccc(Cl)c4)cc[nH]c3=O)nc12` came out in this test?
y

Which outcome was assigned to `Clc1ccc2ncc(-c3cccc(NC4CNC4)n3)n2c1` in this test?
y

What did the test return for `COc1cccc2nc(-c3cccs3)nc(NN3C(=O)C=C(C)C3=O)c12` ?
y

Tell me the recorded outcome of this test for `Cn1c2ccccc2c2c3c(c4c5ccccc5n(CCC#N)c4c21)CNC3=O` .
y

# fetch the recorded call for `Nc1cc(C(F)(F)F)c(-c2cc(N3CCOCC3)nc(N3CCOCC3)n2)cn1` here
y

// param item: `Nc1ccc(S(=O)(=O)Nc2ncccn2)cc1` ; yields the recorded call
n

----------
Test description: Quantitative High-Throughput drug screen in 47 multiple myeloma cell lines against the NCATS MIPE library collection: OCIMY7_PLB cell viability assay (AID 1918987); further: nearly all actives have a fitted effect of over 65% in size
Experimental setup: OCI-MY7 myeloma viability, CellTiter-Glo ATP, 48 h; series mostly up to 45.8 µM
Inconclusive results are not listed. Active and inactive are the calls of the source. Calls follow the shape of the dose curve; as a rule, active = well fitted cell-killing curve with a large enough effect; inconclusive = small, poorly fitted or top-dose-only effect, or effect the other way; inactive = no such curve, though single readings can be large or run the other way.
One label from this list, please: 1.0 (active), 0.0 (inactive)

# fetch the recorded call for `CC(C)(C)c1cc(NC(=O)Nc2ccc(-c3cn4c(n3)sc3cc(OCCN5CCOCC5)ccc34)cc2)no1` here
0.0

Hi team, can someone confirm the assay call for `Cc1[nH]nc2ccc(-c3cncc(OC[C@@H](N)Cc4ccccc4)c3)cc12` ?
1.0

State the result this test recorded for `Cc1cc(Nc2ncnc3ccc(-c4ccc(CNCCS(C)(=O)=O)o4)cc23)ccc1Oc1ccn2ncnc2c1` .
1.0

Check the results log: what was the call for `COc1cc2c(Oc3ccc4[nH]c(C)cc4c3F)ncnc2cc1OCCCN1CCCC1` ?
1.0

# fetch the recorded call for COc1ccc(C(=O)CC2(O)C(=O)Nc3c(Cl)ccc(Cl)c32)cc1 (stereo unspecified) here
1.0

Called result for COc1ccc(-c2cc3c(C)nc(N)nc3n(C3CCC(OCCO)CC3)c2=O)cn1 (stereo unspecified)
1.0

Per the assay record, what outcome was assigned to `Cc1ccc(NC(=O)C2(c3ccc4c(c3)OC(F)(F)O4)CC2)nc1-c1cccc(C(=O)O)c1` ?
1.0

Can you look up the reported call for `CC=CC1=C(C(=O)O)N2C(=O)[C@H](NC(=O)[C@H](N)c3ccc(O)cc3)[C@@H]2SC1` for me?
1.0

Hi team, can someone confirm the assay call for `COC(=O)Nc1ccc(-c2nc(N3CCOCC3)c3cnn(C4CCN(Cc5cccnc5)CC4)c3n2)cc1` ?
1.0

Please let me know the test result on file for `C[C@@]12O[C@@H](C[C@]1(O)CO)n1c3ccccc3c3c4c(c5c6ccccc6n2c5c31)CNC4=O` .
1.0

Which outcome did this test record for the molecule `CC(C)(C)OC(=O)Nc1ccc(-c2cc(C(=O)NCCCCCCC(=O)NO)no2)cc1` ?
1.0

In this assay, the call recorded for `C=CC(=O)Nc1cc2c(Nc3ccc(F)c(Cl)c3)ncnc2cc1OCCCN1CCOCC1` was what?
1.0

Fill in: this test's call for `CC(C)CC(=O)Nc1n[nH]c2c1CN(C(=O)C1CCN(C)CC1)C2(C)C` is ___
1.0

Given `CC[C@H]1CN2CCc3cc(OC)c(OC)cc3[C@H]2C[C@@H]1C[C@@H]1NCCc2cc(OC)c(OC)cc21` , state the outcome it received in this test.
1.0

Please state the recorded outcome for this molecule: `COCCn1c2c([n+](Cc3cnccn3)c1C)C(=O)c1ccccc1C2=O`
1.0

What outcome does the record of this test show for `Cn1c(=O)n(-c2ccc(C(C)(C)C#N)cc2)c2c3cc(-c4cnc5ccccc5c4)ccc3ncc21` ?
1.0

----------
Test description: qHTS of pediatric cancer cell lines to identify multiple opportunities for drug repurposing: Primary screen for SK-N-MC cells (AID 1347093)
Experimental setup: SK-N-MC viability, CellTiter-Glo luminescence, 48 h; series mostly up to 46 µM
Inconclusive results are not listed. Activity calls are given as the source filed them. Calls come from the whole dose curve; as a rule, active = well fitted cell-killing curve with a large enough effect; inconclusive = small, poorly fitted or top-dose-only effect; inactive = no such curve, though single readings can be large or run the other way.
Classes to choose from: true (1) (active), false (0) (inactive)

Hi, do you know how `COc1cc(C(C)C)c2c(c1)S(=O)(=O)N(COc1cc(=O)n3cccc(OCCN4CCCCC4)c3n1)C2=O` came out in this test?
true (1)

Which outcome was assigned to `COc1ccc2c(OCc3nnc4ccc(-c5ccccc5)nn34)ccnc2c1` in this test?
false (0)

Could you check what this test reported for `O=C(Nc1cn[nH]c1-c1nc2ccc(CN3CCOCC3)cc2[nH]1)NC1CC1` ?
true (1)

// param item: `COc1ccc2c(c1)CC[C@@H](CN(C)CC(=O)O)[C@H]2c1ccccc1` ; yields the recorded call
true (1)

I'd appreciate the recorded outcome for Cn1c2cc(S(C)=O)sc2c2cnn(Cc3cccc(N)c3)c(=O)c21 (stereo not drawn) from this test.
false (0)

Per the records of this test, what outcome belongs to `CC[C@@]1(O)C(=O)OCc2c1cc1n(c2=O)Cc2cc3cc(O)ccc3nc2-1` ?
true (1)

Identify the outcome logged in this assay for the molecule shown: O=C(O)C1(Cc2cccc(Nc3nccs3)n2)CCC(Oc2cccc(Cl)c2F)CC1 (stereo not drawn)
true (1)

# fetch the recorded call for `Cc1c(NC(=O)OC[C@@H]2COCCN2)cn2ncnc(Nc3ccc4c(cnn4Cc4cccc(F)c4)c3)c12` here
true (1)

Each molecule tested received a call. Report the one for `CCNC(=O)Nc1ccc2ncc(Nc3ccc(C)cc3)nc2n1` .
true (1)

Please share the test call associated with `c1nc2nc(Nc3ccc(N4CCOCC4)cc3)nc(NC3CCCCC3)c2[nH]1` .
true (1)

Assay outcome for `COc1cc2ncn(-c3cc(OCc4ccccc4C(F)(F)F)c(C(N)=O)s3)c2cc1OC` : what was it?
true (1)

# fetch the recorded call for `COc1ccc(F)c(F)c1C(=O)c1cnc(NC2CCN(S(C)(=O)=O)CC2)nc1N` here
true (1)

Status in this test for `CC(=O)c1c(C)c2cnc(Nc3ccc(N4CCNCC4)cn3)nc2n(C2CCCC2)c1=O` ?
true (1)

// return assay outcome for `NCC(=O)Nc1ccc(-n2nc(C(F)(F)F)cc2-c2ccc3c(ccc4ccccc43)c2)cc1`
true (1)

// param item: `CN[C@H]1CCc2cc(OC)c(OC)c(OC)c2-c2ccc(OC)c(=O)cc21` ; yields the recorded call
true (1)

Tell me the assay call for `Cc1cc(C(=O)N2CCN(c3cccc(Cl)c3)CC2)n(-c2ccccc2)n1` please.
true (1)

State the result this test recorded for `Clc1cccc(-n2nnnc2NCc2ccccc2Oc2ccccn2)c1Cl` .
false (0)

What classification did `CC[C@@H]1C(=O)N(C)c2cnc(Nc3ccc(C(=O)NC4CCN(C)CC4)cc3OC)nc2N1C1CCCC1` end up with in this test?
true (1)
